Molecular target: T1, human IL-2Rα (human, UniProt P01589 22-240, limits assumed)
T1 construct: recombinant protein; also called hu IL-2R; human IL-2Ra
T1 sequence: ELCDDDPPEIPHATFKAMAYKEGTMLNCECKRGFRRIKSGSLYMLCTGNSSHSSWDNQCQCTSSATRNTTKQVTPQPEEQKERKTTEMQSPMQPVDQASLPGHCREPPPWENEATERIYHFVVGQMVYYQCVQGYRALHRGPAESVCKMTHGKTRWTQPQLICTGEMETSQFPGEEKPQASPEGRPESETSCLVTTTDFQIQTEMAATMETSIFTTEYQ
Assay: SPR, P.E. on immobilised antigen
property.label: koff (s⁻¹)
One number for each entry, in s⁻¹.

Examples with answers:
binder	property.label	value.observed
FJ1427_P035MP01H05 (VHH, periplasmic extract; also called clone nr; 40) VHH: EVQLVESGGGLVQPGGSLRLSCAASGFTFSNNFMSWVRQAPGKGLEWVSTISYFGDSTTYAESVKGRFTISRDNAKNTLYLQMNNLKPEDTAVYYCAKATSYDSIRSGSRGRGTQVTVSS	koff	0.00276
FJ1427_P035MP01F03 (VHH, periplasmic extract; also called clone nr; 22) VHH: QVQLVESGGGLVQPGGSLRLSCAASGFTFSNNFMSWVRQAPGKGLEWVSTISYGGESTTYAESVKGRFTISRDNAKNTLYLQMNNLKPEDTAVYYCAKATSYDSVRSGSRGQGTQVTVSS	koff	0.00327
FJ1427_P035MP05C11 (VHH, periplasmic extract; also called clone nr) VHH: QVQLVESGGGLVQAGGSLRLSCTASGLTFEGYAIGWFRQAPGKEREGVSYITGSDASTYYIDSVKGRFTISSDFAKSTVYLQMNNLKPEDTAVYYCAVDRLGSRGGYASSWWRSGDMDLWGKGTLVTVSS	koff	0.00044

Exercise: # input binder: FJ1427_P035MP01G04 (VHH, periplasmic extract; also called clone nr; 31) VHH: QVQLVESGGGLVQPGGSLRLSCAASGFTFSNNFMSWVRQAPGKGLEWVSTISYFGDSTRYAESVKGRFTISRDNEKNTLHLQMNNLKPEDTAVYYCAKATSYDSIRSGSRGRGTQVTVSS ; wanted: its koff
Key: 0.00107
